# Test system: ORYSS: Oryza sativa
# experiment: Postemergence Herbicidal Activity in Direct Seeded Rice
# Format: in vivo
# study.conditions: 35 g ai/ha, postemergence, direct seeded rice
metric: Visual Growth Reduction (%) 21 Days After Application, ORYSS

Input line: GET /values?readout=Visual Growth Reduction (%) 21 Days After Application, ORYSS&system=ORYSS: Oryza sativa&item= COC(=O)c1nc(-c2ccc(C(F)(F)F)nc2)c(F)c(N)c1Cl
Output line: E (45-59)

Input line: GET /values?readout=Visual Growth Reduction (%) 21 Days After Application, ORYSS&system=ORYSS: Oryza sativa&item= COC(=O)c1nc(-c2ccc(C(F)(F)F)nc2)c(C)c(N)c1Cl
Output line: G (0-29)

Input line: GET /values?readout=Visual Growth Reduction (%) 21 Days After Application, ORYSS&system=ORYSS: Oryza sativa&item= COC(=O)c1nc(-c2ccc(C(F)(F)F)nc2)c(Cl)c(N)c1Cl
Output line: E (45-59)

Input line: GET /values?readout=Visual Growth Reduction (%) 21 Days After Application, ORYSS&system=ORYSS: Oryza sativa&item= COC(=O)c1nc(-c2ccc(Cl)nc2F)c(F)c(N)c1Cl
Output line: G (0-29)

###

Entries and their pest or weed control at 70 g/ha values follow.
# Test system: HORSS
# experiment: Post-Emergent Test III (Wheat and Barley)
# Format: in vivo
# study.conditions: Hordeum vulgare, post-emergence, 504 h; 70 g ai/ha, postemergence; read-out: Visual Growth Reduction (%) 21 Days After Application, HORSS

Input line: Given the molecule COC(=O)c1nc(-c2ccc(Cl)c(F)c2OC)cc(N)c1Cl [Compound 20] , what is its reported pest or weed control at 70 g/ha?
Output line: 75 to 84%

Input line: Given the molecule Nc1c(F)c(-c2ccc(OC(F)F)nc2)nc(C(=O)O)c1Cl [Compound 66] , what is its reported pest or weed control at 70 g/ha?
Output line: 60 to 74%

---
Input line: Given the molecule Nc1c(F)c(-c2ccc(C(F)(F)F)nc2)nc(C(=O)O)c1Cl [Compound 46] , what is its reported pest or weed control at 70 g/ha?
Output line: 75 to 84%

Input line: Given the molecule Nc1c(Cl)c(C(=O)O)nc(-c2ccc(C(F)(F)F)nc2)c1Cl [Compound 33] , what is its reported pest or weed control at 70 g/ha?
Output line: 85 to 94%

Input line: Given the molecule COC(=O)c1nc(-c2ccc(C(F)(F)F)nc2)c(Cl)c(N)c1Cl [Compound 83] , what is its reported pest or weed control at 70 g/ha?
Output line: 85 to 94%

###

# Tested on: Key Grass and Sedge Weeds as well as Grass Crops
# experiment: Post-Emergent Test II (Table 6)
# Format: in vivo
# study.conditions: post-emergence, 336 h, SORVU: grain sorghum (Sorghum vulgare), 70 g ai/ha, 14 days after application, read-out: Visual Growth Reduction (%) 14 Days After Application SORVU
Entries and their pest or weed control at 70 g/ha values follow.

Input line: GET /values?readout=pest or weed control at 70 g/ha&system=Key Grass and Sedge Weeds as well as Grass Crops&item= COC(=O)c1nc(-c2ccc(C3CC3)nc2)c(F)c(N)c1Cl [Compound 49]
Output line: 85 to 94%

---
Input line: GET /values?readout=pest or weed control at 70 g/ha&system=Key Grass and Sedge Weeds as well as Grass Crops&item= COC(=O)c1nc(-c2ccc(C(F)(F)F)nc2F)cc(N)c1Cl [Compound 74]
Output line: 0 to 29%

Input line: GET /values?readout=pest or weed control at 70 g/ha&system=Key Grass and Sedge Weeds as well as Grass Crops&item= COC(=O)c1nc(-c2ccc(Cl)nc2OC)cc(N)c1Cl [Compound 48]
Output line: 0 to 29%

Input line: GET /values?readout=pest or weed control at 70 g/ha&system=Key Grass and Sedge Weeds as well as Grass Crops&item= Nc1c(F)c(-c2ccc(I)nc2)nc(C(=O)O)c1Cl [Compound 81]
Output line: 45 to 59%

Input line: GET /values?readout=pest or weed control at 70 g/ha&system=Key Grass and Sedge Weeds as well as Grass Crops&item= COc1c(N)nc(-c2ccc(C(F)(F)F)nc2)nc1C(=O)O [Compound 5]
Output line: 0 to 29%

###

# Tested on: Key Grass and Sedge Weeds as well as Grass Crops
# experiment: Post-Emergent Test II (Table 6)
# Assay type: in vivo
# study.conditions: DIGSA: crabgrass (Digitaria sanguinalis), 70 g ai/ha
metric: Visual Growth Reduction (%) 14 Days After Application, DIGSA

Input line: Given the molecule COC(=O)c1nc(-c2ccc(Cl)c(F)c2Cl)nc(N)c1OC , what is its reported Visual Growth Reduction (%) 14 Days After Application, DIGSA?
Output line: G (0-29)

Input line: Given the molecule Nc1cc(-c2ccc(Cl)c(F)c2C(F)F)nc(C(=O)O)c1Cl , what is its reported Visual Growth Reduction (%) 14 Days After Application, DIGSA?
Output line: G (0-29)

###

Entries and their melting point values follow.

Please review the following examples before continuing.
Input line: Given the compound Cc1c(-c2cc(N)c(Cl)c(C(=O)O)n2)ccc(F)c1F [Compound 87] , what is its reported melting point?
Output line: 163 to 165 °C

Input line: Given the compound COC(=O)c1nc(-c2ccc(F)nc2)c(F)c(N)c1Cl [Compound 23] , what is its reported melting point?
Output line: 167 to 168 °C

Input line: Given the compound COC(=O)c1nc(-c2ccc(F)c(F)c2C)cc(N)c1Cl [Compound 69] , what is its reported melting point?
Output line: 120 to 126 °C

Input line: Given the compound COC(=O)c1nc(-c2ccc(Cl)c(Cl)c2C)cc(N)c1Cl [Compound 77] , what is its reported melting point?
Output line: 136 to 142 °C

---
Input line: Given the compound COC(=O)c1nc(-c2ccc(Cl)nc2Cl)cc(N)c1Cl [Compound 15] , what is its reported melting point?
Output line: 231 °C

Input line: Given the compound COC(=O)c1nc(-c2c(F)cc(Cl)c(F)c2C)cc(N)c1Cl [Compound 38] , what is its reported melting point?
Output line: 144 to 146 °C

Input line: Given the compound Nc1c(F)c(-c2ccc(C(F)F)nc2)nc(C(=O)O)c1Cl [Compound 27] , what is its reported melting point?
Output line: 167 to 169 °C

Input line: Given the compound Nc1c(F)c(-c2ccc(OC(F)F)nc2)nc(C(=O)O)c1Cl [Compound 66] , what is its reported melting point?
Output line: 134 to 136 °C

Input line: Given the compound COC(=O)c1nc(-c2ccc(Cl)c(F)c2C)c(F)c(N)c1Cl [Compound 68] , what is its reported melting point?
Output line: 154 to 156 °C

###

Entries and their pest or weed control at 70 g/ha values follow.
# Test system: Key Grass and Sedge Weeds as well as Grass Crops
# experiment: Post-Emergent Test II (Table 6)
# Type: in vivo
# study.conditions: post-emergence, 336 h, SORVU: grain sorghum (Sorghum vulgare), 70 g ai/ha, 14 days after application, read-out: Visual Growth Reduction (%) 14 Days After Application SORVU
# Description: Seeds or nutlets of the desired test plant species were planted in Sun Gro Metro-Mix® 360 planting mixture, which typically has a pH of 6.0 to 6.8 and an organic matter content of about 30 percent, in plastic pots with a surface area of 64 square centimeters. […] A weighed amount, determined by the highest rate to be tested, of each test compound was placed in a 25 mL glass vial and was dissolved in 4 mL of a 97:3 v/v mixture of acetone and DMSO to obtain concentrated stock solutions. […]

Input line: Given the compound COC(=O)c1nc(-c2ccc(I)nc2)c(F)c(N)c1Cl , what is its reported pest or weed control at 70 g/ha?
Output line: 45 to 59%

Input line: Given the compound COc1nc(C(F)(F)F)ccc1-c1nc(C(=O)O)c(Cl)c(N)c1F , what is its reported pest or weed control at 70 g/ha?
Output line: 0 to 29%

Input line: Given the compound Nc1c(F)c(-c2ccc(OC(F)F)nc2)nc(C(=O)O)c1Cl , what is its reported pest or weed control at 70 g/ha?
Output line: 30 to 44%

Input line: Given the compound Nc1c(F)c(-c2ccc(C(F)F)nc2)nc(C(=O)O)c1Cl , what is its reported pest or weed control at 70 g/ha?
Output line: 75 to 84%

###

# System: SETVI (green foxtail)
# experiment: Post-Emergent Test III (Wheat and Barley)
# Format: in vivo, Setaria viridis
# study.conditions: effective dose for growth reduction of 50 percent, probit analysis
Criterion: GR50, SETVI strictly less than 60 g ai/ha. Met: rule met. Not met: rule not met.

Below are worked cases with known answers.
Input line: Could you please tell me whether GR50, SETVI recorded for Cc1c(-c2ccc(C(F)(F)F)nc2)nc(C(=O)O)c(Cl)c1N [Compound 51] is less than 60 g ai/ha?
Output line: rule met

Input line: Could you please tell me whether GR50, SETVI recorded for COC(=O)c1nc(-c2ccc(C3CC3)nc2)c(F)c(N)c1Cl [Compound 49] is less than 60 g ai/ha?
Output line: rule met

Input line: Could you please tell me whether GR50, SETVI recorded for COC(=O)c1nc(-c2ccc(Cl)c(F)c2OC)c(F)c(N)c1Cl [Compound 39] is less than 60 g ai/ha?
Output line: rule not met

Input line: Could you please tell me whether GR50, SETVI recorded for COC(=O)c1nc(-c2ccc(C(F)(F)F)nc2)c(F)c(N)c1Cl [Compound 59] is less than 60 g ai/ha?
Output line: rule met

Input line: Could you please tell me whether GR50, SETVI recorded for COC(=O)c1nc(-c2ccc(OC(F)F)nc2)c(F)c(N)c1Cl [Compound 71] is less than 60 g ai/ha?
Output line: rule not met

---
Input line: Could you please tell me whether GR50, SETVI recorded for Nc1c(F)c(-c2ccc(OC(F)F)nc2)nc(C(=O)O)c1Cl [Compound 66] is less than 60 g ai/ha?
Output line: rule met

Input line: Could you please tell me whether GR50, SETVI recorded for COC(=O)c1nc(-c2ccc(C(F)(F)F)nc2)c(Cl)c(N)c1Cl [Compound 83] is less than 60 g ai/ha?
Output line: rule not met

Input line: Could you please tell me whether GR50, SETVI recorded for COC(=O)c1nc(-c2ccc(Cl)c(F)c2OC)cc(N)c1Cl [Compound 20] is less than 60 g ai/ha?
Output line: rule not met

Input line: Could you please tell me whether GR50, SETVI recorded for Nc1c(Cl)c(C(=O)O)nc(-c2ccc(C(F)(F)F)nc2)c1Cl [Compound 33] is less than 60 g ai/ha?
Output line: rule met
